assay_info: method code SF-AS, from DOI: 10.1002/jps.2600830720, PMID: 7965659
measurement_conditions: pH 7.0
Where a SMILES comes first, the peptide text is derived from it.
Can you tell me logD for the items I'm about to list?
Give bare numbers.

Check out these entries, answers already filled in.
CSCC[C@H](NC(C)=O)C(=O)N[C@H](C(N)=O)C(C)C
-0.28
CSCC[C@H](NC(C)=O)C(=O)N[C@@H](Cc1ccccc1)C(N)=O
0.42
CC[C@H](C)[C@H](NC(C)=O)C(=O)N[C@@H](C)C(=O)N[C@H](C(N)=O)C(C)C
-0.21
CSCC[C@H](NC(=O)[C@H](C)NC(C)=O)C(=O)N[C@H](C(N)=O)C(C)C
-0.63

# ---- query molecule ----
**Query** Read off the recorded logD for CC[C@H](C)[C@H](NC(C)=O)C(=O)N[C@@H](CCSC)C(=O)N[C@@H](Cc1ccccc1)C(N)=O (Ac-Ile-Met-Phe-NH2)
**Result** 1.28

====

Answer each item with its documented logD.
assay_info: method code SF-AS, from DOI: 10.1002/jps.2600830720, PMID: 7965659
measurement_conditions: pH 2.0
Where a SMILES comes first, the peptide text is derived from it.
One number for each entry.

CC(=O)N[C@@H](Cc1ccccc1)C(=O)N[C@@H](CC(=O)O)C(=O)N[C@@H](CC(C)C)C(N)=O
0.39

# batch size: 2; output logD per entry
1. CC(=O)NC(Cc1ccccc1)C(=O)NC(CCC(=O)O)C(=O)NC(Cc1ccccc1)C(N)=O (stereo not drawn) (Ac-Phe-Glu-Phe-NH2; configuration not given here)
2. CCC(C)C(NC(=O)C(CC(C)C)NC(C)=O)C(=O)NC(CCC(=O)O)C(N)=O (stereo not drawn) (Ac-Leu-Ile-Glu-NH2; configuration not given here)

**Result**
1: 0.65; 2: 0.07
